Cited source for all entries: patent US8536164B2

target: human CK1Epsilon (Cos 7 cells cotransfected with mouse Per3-GFP) (Homo sapiens, UniProt P49674); construct: His tag of the vector pcDNA4/hisA (only the vector name is printed); assay: CK1 WCA HCS nuclear translocation assay (CK1ε); conditions: inhibition of mPer3-GFP translocation to the nucleus, overnight exposure, read-out: CK1 ε WCA EC50
Sequence (P49674 whole entry): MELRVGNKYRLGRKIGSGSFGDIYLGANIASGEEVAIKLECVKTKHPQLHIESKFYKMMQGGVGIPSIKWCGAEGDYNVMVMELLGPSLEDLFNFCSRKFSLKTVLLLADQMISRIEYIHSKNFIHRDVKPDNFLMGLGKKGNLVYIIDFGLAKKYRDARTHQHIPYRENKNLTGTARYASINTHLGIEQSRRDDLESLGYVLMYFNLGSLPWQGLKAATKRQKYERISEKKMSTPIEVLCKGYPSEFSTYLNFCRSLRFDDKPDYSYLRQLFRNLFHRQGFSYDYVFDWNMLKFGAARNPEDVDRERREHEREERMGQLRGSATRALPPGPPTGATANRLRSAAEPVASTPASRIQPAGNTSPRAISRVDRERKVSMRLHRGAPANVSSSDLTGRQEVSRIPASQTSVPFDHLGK
Rule: EC50 below 0.3 µM gives yes. Equal to or above 0.3 µM gives no.

Field: example entries. Status: answers known.
INPUT: I wonder whether CC1COc2c(-c3cn(C)nc3-c3ccc(F)cc3)ccnc2CN1 (centres unmarked) has EC50 below 0.3 µM. Can you tell?
OUTPUT: no

INPUT: Record CC(C)C(=O)N1Cc2nccc(-c3cn(C)nc3-c3ccc(F)cc3)c2C1 : is its EC50 strictly below 0.3 µM?
OUTPUT: yes

INPUT: Criterion: EC50 strictly below 0.3 µM. Is it met by Cn1cc(-c2ccnc3c2C(=O)OC3)c(-c2ccc(F)cc2)n1 ?
OUTPUT: no

New cases:
INPUT: Lab note: confirm whether the reported EC50 for this molecule is below 0.3 µM, equality not counting. molecule: CN1Cc2nccc(-c3cn(C)nc3-c3ccc(Cl)cc3)c2C1=O
OUTPUT: no

INPUT: Please state whether EC50 is below 0.3 µM for Cn1cc(-c2ccnc3c2CN(C(=O)C2CCOC2)C3)c(-c2ccc(F)cc2)n1 (centres unmarked)
OUTPUT: yes
